target: Human MET (residues 956-1390) (Homo sapiens (Human), UniProt P08581); assay: Human Met kinase assay, HTRF KinEase (Example D-2); format: biochemical; settings: protocol of Example D-2 (other compounds); read-out: c-Met IC50
Sequence (P08581 956-1390): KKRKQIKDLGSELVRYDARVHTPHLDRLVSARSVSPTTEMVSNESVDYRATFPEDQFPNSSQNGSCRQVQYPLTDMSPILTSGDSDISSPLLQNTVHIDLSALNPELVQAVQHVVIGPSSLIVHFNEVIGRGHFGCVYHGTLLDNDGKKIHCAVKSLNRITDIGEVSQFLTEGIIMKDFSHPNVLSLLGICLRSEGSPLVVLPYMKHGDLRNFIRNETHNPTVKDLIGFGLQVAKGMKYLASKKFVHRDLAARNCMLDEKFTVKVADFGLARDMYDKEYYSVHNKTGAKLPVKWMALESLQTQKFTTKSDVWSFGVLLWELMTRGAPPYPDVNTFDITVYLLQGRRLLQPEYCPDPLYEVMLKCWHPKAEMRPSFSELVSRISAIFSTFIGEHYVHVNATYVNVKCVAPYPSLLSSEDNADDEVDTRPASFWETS
The compounds listed here are annotated with their IC50.
reported property: IC50

>>> result("COc1cnc2c(Oc3ccc(NC(=O)c4cn(C)c(C)c(-c5ccc(F)cc5C)c4=O)cc3F)ccnc2c1 [Compound 181]")
"< 100 nM"
>>> result("COc1cnc2c(Oc3ccc(NC(=O)c4n[nH]c(C)c(-c5ccc(F)cc5C)c4=O)cc3F)ccnc2c1 [Compound 249A]")
"< 100 nM"
>>> result("COc1cnc2c(Oc3ccc(NC(=O)c4cnc(C(F)(F)F)c(-c5ccc(F)cc5)c4O)cc3F)ccnc2c1 [Compound 241]")
"100 to 300 nM"

----------
target: KDR (phospho-KDR, VEGF165-stimulated HUVEC cells) (Homo sapiens (Human)); assay: KDR autophosphorylation ELISA in HUVEC cells (Example G); format: cell-based; settings: cellular activity; KDR autophosphorylation ELISA in HUVEC cells
Sequence (P35968 20-1356): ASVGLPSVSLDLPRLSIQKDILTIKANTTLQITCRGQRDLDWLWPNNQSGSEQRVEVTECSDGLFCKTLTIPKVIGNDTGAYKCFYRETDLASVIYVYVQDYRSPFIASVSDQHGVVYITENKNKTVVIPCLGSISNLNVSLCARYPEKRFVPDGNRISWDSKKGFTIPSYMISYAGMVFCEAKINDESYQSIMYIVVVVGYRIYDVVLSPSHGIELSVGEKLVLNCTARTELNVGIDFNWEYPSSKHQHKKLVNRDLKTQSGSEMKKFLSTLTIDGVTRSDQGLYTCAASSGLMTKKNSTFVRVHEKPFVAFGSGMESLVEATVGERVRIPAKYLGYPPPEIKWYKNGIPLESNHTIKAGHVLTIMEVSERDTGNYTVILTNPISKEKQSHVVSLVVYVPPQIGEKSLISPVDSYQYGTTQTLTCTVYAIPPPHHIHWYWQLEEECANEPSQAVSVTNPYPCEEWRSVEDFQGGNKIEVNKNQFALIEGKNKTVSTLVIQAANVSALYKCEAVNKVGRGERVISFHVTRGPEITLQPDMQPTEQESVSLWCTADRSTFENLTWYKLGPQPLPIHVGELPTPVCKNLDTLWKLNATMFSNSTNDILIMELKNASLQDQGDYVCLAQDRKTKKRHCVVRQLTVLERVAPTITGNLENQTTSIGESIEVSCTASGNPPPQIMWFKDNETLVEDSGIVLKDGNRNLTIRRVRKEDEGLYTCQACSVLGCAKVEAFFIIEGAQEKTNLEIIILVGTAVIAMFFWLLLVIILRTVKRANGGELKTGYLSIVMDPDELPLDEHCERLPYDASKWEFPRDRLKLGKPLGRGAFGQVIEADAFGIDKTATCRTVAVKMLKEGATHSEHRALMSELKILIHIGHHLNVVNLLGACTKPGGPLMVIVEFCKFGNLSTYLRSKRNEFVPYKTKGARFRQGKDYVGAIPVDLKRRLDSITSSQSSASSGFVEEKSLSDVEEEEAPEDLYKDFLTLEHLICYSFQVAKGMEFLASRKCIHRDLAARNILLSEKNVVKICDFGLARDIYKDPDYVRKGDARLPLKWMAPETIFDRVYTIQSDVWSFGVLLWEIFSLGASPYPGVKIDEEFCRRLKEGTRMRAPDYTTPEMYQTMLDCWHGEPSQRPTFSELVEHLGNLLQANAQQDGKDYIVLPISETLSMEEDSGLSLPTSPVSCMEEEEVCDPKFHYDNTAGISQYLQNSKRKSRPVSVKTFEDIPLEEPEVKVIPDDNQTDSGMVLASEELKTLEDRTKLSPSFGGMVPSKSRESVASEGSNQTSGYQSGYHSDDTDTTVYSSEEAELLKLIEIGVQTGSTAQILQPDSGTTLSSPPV
Counter-ions that a name gives are not always drawn.
reported property: IC50

>>> result("COc1cc2nccc(Oc3ccc(NC(=O)c4c(C)n(C)c(C)c(-c5ccc(F)cc5)c4=O)cc3)c2nc1OC [Compound 523]")
"> 300 nM"
>>> result("COc1cnc2c(Oc3ccc(NC(=O)c4cnc(C)c(-c5ccc(S(C)(=O)=O)cc5)c4O)cc3F)ccnc2c1 [Compound 697]")
"> 300 nM"
>>> result("Cc1ccc(C(=O)Nc2ccc(Oc3ccnc4cccnc34)c(F)c2)c(=O)n1-c1ccc(F)cc1 [Compound 302]")
"100 to 300 nM"
>>> result("COc1cc2nccc(Oc3ccc(NC(=O)c4cn(C)cc(-c5ccccc5)c4=O)cc3F)c2nc1OC [Compound 33, hydrochloride]")
"< 100 nM"
>>> result("CCn1cc(C(=O)Nc2ccc(Oc3ccnc4cc(OC)c(OC)nc34)cc2)c(=O)c(-c2ccc(F)cc2)c1CF [Compound 558]")
"100 to 300 nM"
>>> result("COc1cnc2c(Oc3ccc(NC(=O)c4c(C)ncc(-c5ccc(F)c(F)c5)c4O)cc3F)ccnc2c1 [Compound 797]")
"< 100 nM"
>>> result("CCn1cc(C(=O)Nc2ccc(Oc3ccnc4cc(OC)cnc34)c(F)c2)c(=O)c(-c2ccc(F)cc2)c1CO [Compound 273]")
"> 300 nM"
>>> result("COc1cnc2c(Oc3ccc(NC(=O)c4cc(C)nn(-c5ccc(F)cc5)c4=O)cc3)ccnc2c1 [Compound 522]")
"> 300 nM"
>>> result("COc1cc2nccc(Oc3cc(F)c(NC(=O)c4c(C)nc(C)c(-c5ccc(F)cc5C)c4O)cc3F)c2nc1Cl [Compound 737]")
"< 100 nM"
>>> result("COc1cc2nccc(Oc3ccc(NC(=O)c4cnc(C)c(-c5ccc(F)cc5)c4O)cc3F)c2nc1NS(C)(=O)=O [Compound 584]")
"< 100 nM"
>>> result("COc1cc2nccc(Oc3ccc(NC(=O)c4cn(C)c(CF)c(-c5ccc(F)cc5)c4=O)cc3F)c2nc1OC [Compound 73]")
"< 100 nM"

----------
Recorded pIC50 by entry
biological target: Human KDR (residues 790-1356) (Homo sapiens (Human), UniProt P35968); assay: Human KDR kinase assay, HTRF KinEase (Example B-2); format: biochemical; conditions: protocol of Example B-2 (other compounds)
pIC50: −log10 of the molar value.
reported property: pIC50

>>> result("COc1cc2nccc(Oc3ccc(NC(=O)c4n[nH]c(C)c(-c5ccc(F)cc5C)c4=O)cc3F)c2nc1OC [Compound 90]")
"> 7.00"
>>> result("COc1cnc2c(Oc3ccc(NC(=O)c4cnc(CO)c(-c5ccc(F)cc5)c4O)cc3)ccnc2c1 [Compound 218]")
"6.52 to 7.00"
>>> result("COc1cc2nccc(Oc3ncc(NC(=O)c4cn(-c5ccn(C)n5)cc(-c5ccc(F)cc5)c4=O)cc3F)c2cc1OC [Compound 402]")
"< 6.52"
>>> result("COc1cc2nccc(Oc3ccc(NC(=O)c4nn(C)c(C)c(-c5ccc(F)cc5)c4=O)cc3)c2nc1OC [Compound 91]")
"6.52 to 7.00"
>>> result("Cc1ccc(C(=O)Nc2ccc(Oc3ccnc4ccc(OCCN5CCOCC5)nc34)c(F)c2)c(=O)n1-c1ccc(F)cc1 [Compound 351]")
"< 6.52"
>>> result("COc1cc2nccc(Oc3ccc(NC(=O)c4cn(C5CC5)c(C)c(-c5ccc(F)cc5C)c4=O)cc3)c2nc1OC [Compound 440]")
"< 6.52"
>>> result("CCn1cc(C(=O)Nc2ccc(Oc3ccnc4cc(OC)cnc34)c(F)c2)c(=O)c(-c2ccc(F)cc2C)c1CO [Compound 285]")
"< 6.52"
>>> result("COc1cnc2c(Oc3ccc(NC(=O)c4cn(C)c(Cl)c(-c5ccc(F)cc5)c4=O)cc3F)ccnc2c1 [Compound 411]")
"< 6.52"
